test system: Human immunodeficiency virus 1; assay: Anti retroviral activity against HIV-1 NL4-3 harboring at NT polymorph infected in human MT4 cells by CellTitre-Glo luminescent reagent based assay; type: functional, organism-based; conditions: Human immunodeficiency virus 1, NL4-3, MT4
Readout kind: EC50 (µM)
Only the number, expressed in µM, is required.

Reported EC50 ( `Cc1nc2ccccc2c(-c2ccc3c4c(ccnc24)CCO3)c1[C@H](OC(C)(C)C)C(=O)O` ) = 0.032

* * *

biological target: CYP (Homo sapiens, UniProt P04798+P05177+P05181+P08684+P10632+P10635+P11509+P11712+P13584+P20813+P20815+P20853+P24462+P24903+P33260+P33261+P51589+P78329+P98187+Q02928+Q08477+Q16678+Q16696+Q5TCH4+Q6VVX0+Q7Z449+Q8TAV3+Q96SQ9+Q9HB55); experiment: Half life in human assessed as CYP mediated metabolism in presence of […] by phase I metabolic oxidation assay; type: ADME, protein assay
Readout kind: half-life (h)
Only the number, expressed in h, is required.

Reported half-life ( `Cc1nc(C)c([C@H](OC(C)(C)C)C(=O)O)c(N2CCC(C)(C)CC2)c1-c1ccc(OCCc2ccc(F)cc2)cc1` ) = 1.42
